Reported increase of exposure caused by SMV is given for each of the following molecules.
# protocol: Drug-drug interaction study in humans (Phase-1, open-label, two-group, fixed-sequence, PK)
# assay-setup: DDI study, co-administration of SMV
Expressed in ×, but write only the number.

Please review the following examples before continuing.
>  <molecule-smiles>
C[C@H](NP(=O)(O)OC[C@@]1(F)O[C@@H](n2ccc(=O)[nH]c2=O)[C@](C)(O)[C@@H]1O)C(=O)O

>  <measured-endpoint>
increase of exposure caused by SMV

>  <result-number>
1.6

$$$$
>  <molecule-smiles>
COC(=O)N[C@H](C(=O)N1[C@H](c2nc3cc(-c4cc5ccc4CCc4ccc(c(-c6ccc7[nH]c([C@@H]8C[C@@H]9CCCC[C@@H]9N8C(=O)[C@@H](NC(=O)OC)C(C)C)nc7c6)c4)CC5)ccc3[nH]2)C[C@@H]2CCCC[C@@H]21)C(C)C

>  <measured-endpoint>
increase of exposure caused by SMV

>  <result-number>
1.6

$$$$

Request: Which value of increase of exposure caused by SMV has been reported for "CC(C)OC(=O)[C@H](C)N[P@](=O)(OC[C@@]1(F)O[C@@H](n2ccc(=O)[nH]c2=O)[C@](C)(O)[C@@H]1O)Oc1ccccc1" in the records?
Response: 3
